system: HCT-116; assay: NCI tumour cell line growth inhibition, 48 h
Activity calls are given as the source filed them. No stated cut-off is given here; in the data, active = GI50 up to about 1.1 µM and inactive = higher. Square brackets hold non-standard residues; d marks the D form. Peptide text beside a SMILES is read from it. * marks the point of attachment. NMeV = CN[C@H](C(=O)O)C(C)C; X28 = COc1ccc(CN*)c(OC)c1; Octanoyl = CCCCCCCC(=O)*; dNMeA = CN[C@H](C)C(=O)O
Items are presented alongside their recorded GI50.

C[C@]12CC[C@H](O)CC1=CC[C@@H]1C2CC[C@]2(C)C(=O)N(N)C(=O)CC12 (some centres undefined) ... > 100 µM (inactive)
O=C(CCCN1CCC(Nc2ccccc2)(c2nnnn2C2CCCCC2)CC1)c1ccc(F)cc1 ... 4.48 µM (inactive)
COc1ccccc1N1C(=O)CSC1c1cc(OC)c(OC)c(OC)c1 (centres undefined) ... 13.3 µM (inactive)
CCOP(=O)(Cc1nc(C#N)c(N)o1)OCC ... > 100 µM (inactive)
CCOC(=O)c1c[nH]c2c(ccc3ncccc32)c1=O ... > 100 µM (inactive)
COc1ccc(-c2cc(-c3cc(C)cc(Br)c3O)no2)cc1 ... 10.3 µM (inactive)

Fill in the blank: the reported GI50 of CCCCCCCC(=O)N[C@H](C(=O)N[C@H](C(=O)N(C)[C@H](C(=O)N1CCC[C@H]1C(=O)N(C)[C@H](C)C(=O)NCc1ccc(OC)cc1OC)C(C)C)C(C)C)C(C)C (Octanoyl-VV[NMeV]P[dNMeA]-X28) is ____. 5.93 µM (inactive)

For the molecule shown here, CCOP(=O)(OCC)/C(F)=C/c1ccccc1 , give the reported GI50. > 100 µM (inactive)
